// data source = ChEMBL document CHEMBL3580592

- runDescription: Cytotoxicity against African green monkey Vero cells assessed as cell death by MTT assay
- Format: cell-based
- cond: chlorocebus sabaeus, read-out: LC50 (the source's name)
// assign satisfied if CC50 falls strictly below 50 µM, else not satisfied (ties count as not satisfied)

Qu. For "COc1ccc(Nc2c(-c3ccc(OC)c(O)c3)nc3cnccn23)cc1" , is the recorded CC50 below the cut-off of 50 µM?
Ans. not satisfied

Qu. For "COc1cc(Nc2c(-c3ccc(Cl)cc3)nc3cnccn23)cc(OC)c1OC" , is the recorded CC50 below the cut-off of 50 µM?
Ans. satisfied

Qu. For COc1ccc(/C=C\c2cc(OC)c(OC)c(OC)c2)cc1O [COMBRETASTATIN A4] , is the recorded CC50 below the cut-off of 50 µM?
Ans. satisfied
